Hello, the source for this data is patent US20190374526A1, in case you need it.

# Target: hPRDM9 (amino acids 195-385) (Homo sapiens)
# Sequence (Q9NQV7 195-385): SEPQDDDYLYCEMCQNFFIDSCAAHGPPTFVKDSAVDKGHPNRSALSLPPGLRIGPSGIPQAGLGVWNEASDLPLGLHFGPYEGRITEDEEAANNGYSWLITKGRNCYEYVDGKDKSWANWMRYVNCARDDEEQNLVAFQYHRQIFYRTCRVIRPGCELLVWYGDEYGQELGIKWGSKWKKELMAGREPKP
pIC50: −log10 of the molar value. Counter-ions that a name gives are not always drawn.
Readout Kind: pIC50

Compound	pIC50
CNCc1cc(OC)cc(-c2noc(N3CCN(C)C4(CCN(c5ccnc(C)c5)CC4)C3)n2)c1 [Compound 245, HCl]	7.08
Cc1cc(N2CC3(CCCN(c4nc(-c5cc(Cl)cc(Cl)c5)no4)C3)C2)cc(C)n1	6.80

I. Cc1cc(N2CC3(CC(Nc4nc(-c5cc(Cl)cc(Cl)c5)no4)C3)C2)ccn1
II. Cc1cc(NC2CC3(CCN(c4nc(-c5cc(Cl)cc(Cl)c5)no4)C3)C2)ccn1 (centres unmarked)
Request: Consider entries I and II . Which has the numerically lower pIC50? Respond using the label that marks the chosen record.
Result: I
(I: 5.10, II: 5.46)

a. Cc1cc(N2CC3(CCCN(c4ccnc(-c5cc(Cl)cc(Cl)c5)c4)C3)C2)ccn1
b. Cc1cc(N2CCC3(CCCN(c4nc(-c5cc(Cl)cc(Cl)c5)no4)C3)CC2)ccn1
Request: Field: entry with larger pIC50 (options a / b ). Respond using the label that marks the chosen record.
Result: b
(b: 6.61, a: 5.26)
